Biological target: T. brucei N-myristoyl transferase (Trypanosoma brucei brucei (strain 927/4 GUTat10.1))
Sequence (Q388H8 1-446): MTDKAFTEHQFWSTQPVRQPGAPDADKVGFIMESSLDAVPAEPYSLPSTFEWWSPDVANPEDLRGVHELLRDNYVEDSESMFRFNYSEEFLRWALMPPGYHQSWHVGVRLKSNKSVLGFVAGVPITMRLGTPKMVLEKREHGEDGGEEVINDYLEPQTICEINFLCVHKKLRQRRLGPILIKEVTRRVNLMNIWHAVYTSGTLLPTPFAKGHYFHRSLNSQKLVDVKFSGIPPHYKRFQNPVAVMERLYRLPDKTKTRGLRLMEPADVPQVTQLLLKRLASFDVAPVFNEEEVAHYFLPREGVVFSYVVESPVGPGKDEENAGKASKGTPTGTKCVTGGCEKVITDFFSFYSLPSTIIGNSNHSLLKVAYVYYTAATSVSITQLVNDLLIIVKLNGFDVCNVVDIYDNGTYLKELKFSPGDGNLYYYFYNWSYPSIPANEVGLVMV
Experiment: biochemical
Type: biochemical
Conditions: value printed without enzyme tag in the NMT Enzyme column (taken as T. brucei NMT); read-out: IC50 (μM) NMT Enzyme
IC50 overview
Entry rule: numbers only, all in µM.

Consider the reported IC50 for these compounds:
Compound | Readout Unit | IC50
Cc1nn(C)c(C)c1N[S+](=O)([O-])c1ccc(CNCc2ccccc2)cc1 [DDD73265] | µM | 22.5
Cc1nn(C)c(C)c1N[S+](=O)([O-])c1ccc(NC(C)c2ccccc2)nc1 (stereo not shown) [DDD73322] | µM | 0.86

Alright, here's another compound for you.
The compound Cc1nn(C)c(C)c1N[S+](=O)([O-])c1ccc(CSc2ccc(Cl)cc2Cl)cc1 [DDD85610] , tested on T. brucei N-myristoyl transferase (Trypanosoma brucei brucei (strain 927/4 GUTat10.1)), showed IC50 of 61.6

----------
Target: T. brucei N-myristoyl transferase (Trypanosoma brucei brucei (strain 927/4 GUTat10.1))
Assay: biochemical
Assay type: biochemical
Details: value with no enzyme tag in the cell; taken as T. brucei NMT; read-out: IC50 (μM) NMT Enzyme
Decide using IC50 alone. Strictly below 3 µM: T. Equal to or above 3 µM: F.

Examples from the recorded data:
Compound | Assigned Class
Cc1nn(C)c(C)c1N[S+](=O)([O-])c1ccc(COCCCCN(C)C)cc1 | F
Cc1c(N[S+](=O)([O-])c2c(Cl)cc(CCCN3CCN(C)CC3)cc2Cl)c(CC(C)C)nn1C | T
Cc1nn(C)c(C)c1N[S+](=O)([O-])c1ccc(CNCCN(C)C)cc1 | F
CCN(CC)Cc1cccc(-c2cc(Cl)c([S+](=O)([O-])Nc3c(CC(C)C)nn(C)c3C)c(Cl)c2)c1 | T
Cc1nn(C)c(C)c1NS(=O)(=O)c1c(Cl)cc(-c2ccnc(NCCNc3ccccn3)c2)cc1Cl | T
COc1cc(C)c([S+](=O)([O-])Nc2ccc(C)nc2C)c(C)c1C | F
Cc1nn(C)c(C)c1N[S+](=O)([O-])c1ccc(N2CCC(N3CCNCC3)C2)nc1 (centres unmarked) | T

Kindly review the next compound as well.
Input "Cc1nn(C)c(C)c1N[S+](=O)([O-])c1ccc(COCCN2CCN(C)CC2)cc1" ; condition: IC50 strictly below 3 µM. Does it hold?
F

----------
Molecular target: T. brucei N-myristoyl transferase (Trypanosoma brucei brucei (strain 927/4 GUTat10.1))
Assay: biochemical
Format: biochemical
Conditions: value printed without enzyme tag in the NMT Enzyme column (taken as T. brucei NMT); read-out: IC50 (μM) NMT Enzyme
Readout: IC50 (µM)
Entry rule: numbers only, all in µM.

Consider the reported IC50 for these compounds:
Compound | Readout | Readout Unit | Value Observed
Cc1nn(C)c(C)c1N[S+](=O)([O-])c1ccc(NCCc2ccc3ccccc3c2)nc1 | IC50 | µM | 12.4
Cc1nn(C)c(C)c1N[S+](=O)([O-])c1ccc(N(C)Cc2ccc(CN(C)C)cc2)nc1 | IC50 | µM | 0.36
Cc1nn(C)c(C)c1N[S+](=O)([O-])c1ccc(CN2CCCc3ccccc32)cc1 | IC50 | µM | 41.7
Cc1nn(C)c(C)c1N[S+](=O)([O-])c1ccc2c(c1)OCO2 | IC50 | µM | 4
Cc1nn(C)c(C)c1N[S+](=O)([O-])c1ccc(N2CCc3ccccc32)nc1 | IC50 | µM | 8

// "Cc1nn(C)c(C)c1N[S+](=O)([O-])c1ccc([S+](C)(=O)[O-])cc1" : IC50 value = 4.2

// "Cc1nn(C)c(C)c1N[S+](=O)([O-])c1ccc2c(c1)OCCCO2" : IC50 value = 3.5

// Cc1nn(C)c(C)c1N[S+](=O)([O-])c1ccc(CNC2CCc3ccccc32)cc1 (centres unmarked) : IC50 value = 44

// "Cc1nn(C)c(C)c1N[S+](=O)([O-])c1ccc(NCc2ccc3c(c2)OCO3)nc1" : IC50 value = 1.4

// "Cc1nn(C)c(C)c1N[S+](=O)([O-])c1ccc2c(c1)OCCO2" : IC50 value = 4

// "Cc1nn(C)c(C)c1N[S+](=O)([O-])c1ccc(NCCCN2CCN(C)CC2)nc1" : IC50 value = 0.12

// "COc1cc([S+](=O)([O-])Nc2c(C)nn(C)c2C)ccc1NC(C)=O" : IC50 value = 42

// "Cc1nn(C)c(C)c1N[S+](=O)([O-])c1ccc(NCc2nc3ccccc3s2)nc1" : IC50 value = 0.46

// Cc1nn(C)c(C)c1N[S+](=O)([O-])c1ccc(NCC(O)c2ccccc2)nc1 (centres unmarked) : IC50 value = 2.3

// "Cc1nn(C)c(C)c1N[S+](=O)([O-])c1ccc2c(c1)CCC2" : IC50 value = 5.6

// "Cc1nn(C)c(C)c1N[S+](=O)([O-])c1ccc(OC(F)(F)F)cc1" : IC50 value = 2.7

// "Cc1nn(C)c(C)c1N[S+](=O)([O-])c1ccc(NCCCO)nc1" : IC50 value = 1

// "Cc1nn(C)c(C)c1N[S+](=O)([O-])c1ccc(NC2Cc3ccccc3C2)nc1" : IC50 value = 0.36

// "Cc1nn(C)c(C)c1N[S+](=O)([O-])c1ccc(NCCCN(C)C)nc1" : IC50 value = 2.4

// "Cc1nn(C)c(C)c1N[S+](=O)([O-])c1ccc(Cn2ccnc2)cc1" : IC50 value = 1.9

// "Cc1nn(C)c(C)c1N[S+](=O)([O-])c1ccc(CNc2ccc(N3CCOCC3)cc2)cc1" : IC50 value = 10

// "Cc1nn(C)c(C)c1N[S+](=O)([O-])c1ccc(N2CCN(c3ccc(F)cc3)CC2)nc1" : IC50 value = 10.7

// "COc1cc(C)c([S+](=O)([O-])Nc2c(C)noc2C)c(C)c1C" : IC50 value = 19.3

// "Cc1nn(C)c(C)c1N[S+](=O)([O-])c1ccc(COCCn2ccnc2)cc1" : IC50 value = 11.1

// "Cc1nn(C)c(C)c1NS(=O)(=O)c1ccc(N2CCc3cccc(N)c3C2)nc1" : IC50 value = 0.32

// "Cc1nn(C)c(C)c1N[S+](=O)([O-])c1c(Cl)cc(-c2ccco2)cc1Cl" : IC50 value = 3.6

// "Cc1nn(C)c(C)c1N[S+](=O)([O-])c1sc2ccc(F)cc2c1C" : IC50 value = 6.6

// "CC(=O)Nc1ccc([S+](=O)([O-])Nc2c(C)nn(C)c2C)cc1" : IC50 value = 2.8

// "Cc1nn(C)c(C)c1N[S+](=O)([O-])c1ccc(CNc2ccc(C(C)C)cc2)cc1" : IC50 value = 9.7

----------
Target: UniProtKB P30419
Sequence (P30419 whole entry): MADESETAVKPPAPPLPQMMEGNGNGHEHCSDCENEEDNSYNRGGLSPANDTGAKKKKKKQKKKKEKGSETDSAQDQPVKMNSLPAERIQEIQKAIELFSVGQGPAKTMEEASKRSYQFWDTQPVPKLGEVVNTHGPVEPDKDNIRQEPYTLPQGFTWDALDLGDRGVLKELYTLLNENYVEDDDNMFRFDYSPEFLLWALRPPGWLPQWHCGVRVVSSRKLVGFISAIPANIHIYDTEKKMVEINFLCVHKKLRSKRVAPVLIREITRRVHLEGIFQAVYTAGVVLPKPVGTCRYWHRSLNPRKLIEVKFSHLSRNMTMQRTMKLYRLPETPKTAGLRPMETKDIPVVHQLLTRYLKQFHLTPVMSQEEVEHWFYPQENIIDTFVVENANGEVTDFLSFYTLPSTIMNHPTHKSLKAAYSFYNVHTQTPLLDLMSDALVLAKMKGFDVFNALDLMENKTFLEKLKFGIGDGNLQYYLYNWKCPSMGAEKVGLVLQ
Experiment: NMT enzyme inhibition scintillation proximity assay, human NMT-1
Assay type: biochemical
Settings: HuNMT-1
Readout: IC50 (µM)
Entry rule: numbers only, all in µM.

Mol | IC50 [µM]
Cc1nn(C)c(C)c1N[S+](=O)([O-])c1ccc2nc(NC3CCNCC3)ccc2c1 | 6.3

// "Cc1nn(C)c(C)c1N(C)[S+](=O)([O-])c1c(Cl)cc(Br)cc1Cl" : IC50 value = 4

----------
Target: T. brucei N-myristoyl transferase (Trypanosoma brucei brucei (strain 927/4 GUTat10.1))
Test: biochemical
Assay type: biochemical
Conditions: value with no enzyme tag in the cell; taken as T. brucei NMT; read-out: IC50 (μM) NMT Enzyme
Readout: IC50 (µM)
Entry rule: numbers only, all in µM.

Consider the reported IC50 for these compounds:
Mol | Test System | IC50 / µM
Cc1nn(C)c(C)c1NS(=O)(=O)c1c(Cl)cc(-c2ccnc(NCCCn3ccnc3)c2)cc1Cl | T. brucei N-myristoyl transferase (Trypanosoma brucei brucei (strain 927/4 GUTat10.1)) | 1
Cc1nn(C)c(C)c1N(C)[S+](=O)([O-])c1ccc(CCCC2CCN(C(C)C)CC2)cc1 | T. brucei N-myristoyl transferase (Trypanosoma brucei brucei (strain 927/4 GUTat10.1)) | 0.31
Cc1nn(C)c(C)c1N(C)[S+](=O)([O-])c1ccc(CCCC2CCN(Cc3ccccc3)CC2)cc1 | T. brucei N-myristoyl transferase (Trypanosoma brucei brucei (strain 927/4 GUTat10.1)) | 0.5
Cc1nn(C)c(C)c1N[S+](=O)([O-])c1ccc2nc(NC3CCNCC3)ccc2c1 | T. brucei N-myristoyl transferase (Trypanosoma brucei brucei (strain 927/4 GUTat10.1)) | 0.61
Cc1noc(C)c1N[S+](=O)([O-])c1ccc(CCCN2CCN(C)CC2)cc1 | T. brucei N-myristoyl transferase (Trypanosoma brucei brucei (strain 927/4 GUTat10.1)) | 1.1
Cc1nn(C)c(C)c1N[S+](=O)([O-])c1ccc(CCCN2CCN(C)CC2)cc1Cl | T. brucei N-myristoyl transferase (Trypanosoma brucei brucei (strain 927/4 GUTat10.1)) | 0.027

// "Cc1c(N[S+](=O)([O-])c2ccc(CCCN3CCN(C)CC3)cc2)c(CC(C)C)nn1C" : IC50 value = 0.034

Values compiled from patent US9156811B2.
